SYSTEM NAME: soybean lipoxygenase (Glycine max, UniProt P08170)
Sequence (P08170 whole entry): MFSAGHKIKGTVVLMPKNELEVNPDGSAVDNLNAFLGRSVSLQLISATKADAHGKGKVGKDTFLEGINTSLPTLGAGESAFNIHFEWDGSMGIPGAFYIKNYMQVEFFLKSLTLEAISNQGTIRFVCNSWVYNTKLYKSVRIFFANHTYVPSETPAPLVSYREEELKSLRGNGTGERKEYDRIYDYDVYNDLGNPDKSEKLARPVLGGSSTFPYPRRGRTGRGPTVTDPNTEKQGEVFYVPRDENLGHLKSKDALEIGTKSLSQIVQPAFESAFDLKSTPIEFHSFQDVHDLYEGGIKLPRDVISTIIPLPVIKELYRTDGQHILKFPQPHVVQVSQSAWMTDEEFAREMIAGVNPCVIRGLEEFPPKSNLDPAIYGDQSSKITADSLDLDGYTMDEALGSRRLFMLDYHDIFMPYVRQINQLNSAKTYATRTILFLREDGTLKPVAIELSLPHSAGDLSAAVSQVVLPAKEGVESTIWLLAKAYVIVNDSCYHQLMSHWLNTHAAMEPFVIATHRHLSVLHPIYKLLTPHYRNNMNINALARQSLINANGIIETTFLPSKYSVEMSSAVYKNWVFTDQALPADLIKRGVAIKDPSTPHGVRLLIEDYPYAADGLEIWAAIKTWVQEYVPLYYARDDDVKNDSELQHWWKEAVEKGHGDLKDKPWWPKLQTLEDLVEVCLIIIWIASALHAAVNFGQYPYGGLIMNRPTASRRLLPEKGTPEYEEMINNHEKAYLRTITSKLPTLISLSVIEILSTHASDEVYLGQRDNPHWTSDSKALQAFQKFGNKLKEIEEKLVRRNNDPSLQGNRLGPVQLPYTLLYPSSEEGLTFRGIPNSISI
MEASUREMENT NOTES: Soybean lipoxygenase inhibition in vitro
Format: biochemical
REPORTED CONDITIONS: 0.1 mM sodium linoleate, 234 nm
Readings of LOX (%) inhibition for the listed compounds
The reply should consist of the numeric value with the unit placed after it.

The following compounds have reported results that may help.
CPD SMILES: O=c1/c(=C/c2ccccc2Br)sc2nc(C34CC5CC(CC(C5)C3)C4)nn12
RESULT: 17.15%
--
CPD SMILES: O=c1/c(=C/c2cccc(O)c2)sc2nc(C34CC5CC(CC(C5)C3)C4)nn12
RESULT: 5.82%

Return value of LOX (%) inhibition for input O=c1/c(=C/c2cccc(Br)c2)sc2nc(C34CC5CC(CC(C5)C3)C4)nn12 , no commentary.
31.43%

Please supply the value of reported LOX (%) inhibition for the item COc1ccc(/C=c2\sc3nc(C45CC6CC(CC(C6)C4)C5)nn3c2=O)cc1
5.72%

Please look at this compound and report its LOX (%) inhibition: O=c1/c(=C/c2ccc(O)cc2)sc2nc(C34CC5CC(CC(C5)C3)C4)nn12
28.58%

Identify LOX (%) inhibition associated with the compound COc1cc(/C=c2\sc3nc(C45CC6CC(CC(C6)C4)C5)nn3c2=O)cc(OC)c1O
16.13%

Complete the entry with LOX (%) inhibition for O=c1/c(=C/c2cccc(Cl)c2Cl)sc2nc(C34CC5CC(CC(C5)C3)C4)nn12
11.43%

====

SYSTEM NAME: ovine COX-1 (Ovis aries)
Construct: purchased Cayman Chemical Co., Ann Arbor, MI, USA
MEASUREMENT NOTES: COX inhibitor screening assay in vitro, COX-1
Type: biochemical
REPORTED CONDITIONS: at 200 μM; 0.1 μM arachidonic acid; read-out: COX-1 (%) inhibition
We use 20% as the dividing line for inhibition at 200 µM: on or above the line is fulfilled, below is not fulfilled.

Is reported inhibition at 200 µM greater than or equal to 20% here: O=c1/c(=C/c2cccc(O)c2)sc2nc(C34CC5CC(CC(C5)C3)C4)nn12
not fulfilled

Textbook exercise: given the entry COc1cc(/C=c2\sc3nc(C45CC6CC(CC(C6)C4)C5)nn3c2=O)cc(OC)c1O , state whether its inhibition at 200 µM is greater than or equal to 20%.
fulfilled

Given the entry O=c1/c(=C/c2ccc(Br)cc2)sc2nc(C34CC5CC(CC(C5)C3)C4)nn12 , answer whether its inhibition at 200 µM meets or surpasses 20%.
not fulfilled

Check the entry O=c1/c(=C/c2cccc(Cl)c2Cl)sc2nc(C34CC5CC(CC(C5)C3)C4)nn12 : does inhibition at 200 µM equal or exceed 20%?
fulfilled

# bool: inhibition at 200 µM of O=c1/c(=C/c2cccc(Br)c2)sc2nc(C34CC5CC(CC(C5)C3)C4)nn12 >= 20%
not fulfilled

Is inhibition at 200 µM at least 20%? Consider O=c1/c(=C/c2ccc(F)cc2)sc2nc(C34CC5CC(CC(C5)C3)C4)nn12
not fulfilled

Hi, just wondering whether O=c1/c(=C/c2ccccc2Br)sc2nc(C34CC5CC(CC(C5)C3)C4)nn12 shows inhibition at 200 µM of 20% or higher.
not fulfilled

Decide: inhibition at 200 µM of COc1cc(/C=c2\sc3nc(C45CC6CC(CC(C6)C4)C5)nn3c2=O)ccc1O >= 20%?
fulfilled

====

We begin with a simple list: items and their reported inhibition at 200 µM.
SYSTEM NAME: human recombinant COX-2 (Homo sapiens, UniProt P35354)
Construct: purchased Cayman Chemical Co., Ann Arbor, MI, USA
Sequence (P35354 18-604): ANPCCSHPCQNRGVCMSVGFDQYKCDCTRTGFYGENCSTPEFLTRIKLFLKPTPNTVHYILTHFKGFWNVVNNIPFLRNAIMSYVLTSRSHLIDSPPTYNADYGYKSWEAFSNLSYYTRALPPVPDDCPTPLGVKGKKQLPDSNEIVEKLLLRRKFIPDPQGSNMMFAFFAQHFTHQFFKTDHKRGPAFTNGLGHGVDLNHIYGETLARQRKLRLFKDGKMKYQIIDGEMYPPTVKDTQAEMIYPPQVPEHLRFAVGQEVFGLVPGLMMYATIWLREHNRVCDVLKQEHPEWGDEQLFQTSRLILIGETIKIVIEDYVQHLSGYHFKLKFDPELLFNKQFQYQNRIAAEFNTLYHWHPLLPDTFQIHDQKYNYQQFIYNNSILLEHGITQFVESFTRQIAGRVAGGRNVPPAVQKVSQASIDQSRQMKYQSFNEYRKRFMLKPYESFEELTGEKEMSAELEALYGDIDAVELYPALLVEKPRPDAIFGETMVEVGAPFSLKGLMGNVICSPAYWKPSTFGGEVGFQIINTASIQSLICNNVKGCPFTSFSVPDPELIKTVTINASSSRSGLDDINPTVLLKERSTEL
MEASUREMENT NOTES: COX inhibitor screening assay in vitro, COX-2
Format: biochemical
REPORTED CONDITIONS: at 200 μM; 0.1 μM arachidonic acid; read-out: COX-2 (%) inhibition
# number only, unit % dropped from output

Take a look at these entries with their results.
CPD SMILES: O=c1/c(=C/c2cccc(Br)c2)sc2nc(C34CC5CC(CC(C5)C3)C4)nn12
SYSTEM NAME: human recombinant COX-2 (Homo sapiens, UniProt P35354)
inhibition at 200 µM (%): 37

CPD SMILES: O=c1/c(=C/c2ccccc2Br)sc2nc(C34CC5CC(CC(C5)C3)C4)nn12
SYSTEM NAME: human recombinant COX-2 (Homo sapiens, UniProt P35354)
inhibition at 200 µM (%): 0

Report inhibition at 200 µM for COc1cc(/C=c2\sc3nc(C45CC6CC(CC(C6)C4)C5)nn3c2=O)ccc1O
66

====

SYSTEM NAME: ovine COX-1 (Ovis aries, UniProt P05979)
Sequence (P05979 25-600): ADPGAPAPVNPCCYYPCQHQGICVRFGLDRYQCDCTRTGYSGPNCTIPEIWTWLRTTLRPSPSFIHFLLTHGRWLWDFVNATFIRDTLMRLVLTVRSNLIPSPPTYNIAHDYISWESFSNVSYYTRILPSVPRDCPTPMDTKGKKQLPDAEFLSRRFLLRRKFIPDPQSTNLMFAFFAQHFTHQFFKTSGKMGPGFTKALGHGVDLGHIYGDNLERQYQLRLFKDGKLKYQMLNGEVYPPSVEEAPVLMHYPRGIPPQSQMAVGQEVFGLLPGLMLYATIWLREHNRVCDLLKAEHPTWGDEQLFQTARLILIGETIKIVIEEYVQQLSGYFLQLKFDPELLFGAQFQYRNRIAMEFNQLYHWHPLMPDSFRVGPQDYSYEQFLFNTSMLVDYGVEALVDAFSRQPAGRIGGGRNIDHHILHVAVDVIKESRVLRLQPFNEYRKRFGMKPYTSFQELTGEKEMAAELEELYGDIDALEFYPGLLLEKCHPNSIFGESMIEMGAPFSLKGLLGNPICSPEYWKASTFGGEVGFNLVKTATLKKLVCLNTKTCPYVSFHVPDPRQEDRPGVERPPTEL
PROPERTY NAME: IC50
Write the quantity with the unit trailing the number.

# return recorded IC50 for input O=c1/c(=C/c2ccc(O)cc2)sc2nc(C34CC5CC(CC(C5)C3)C4)nn12 [Compound 3]
1280 nM

====

SYSTEM NAME: human recombinant COX-2 (Homo sapiens)
Construct: purchased Cayman Chemical Co., Ann Arbor, MI, USA
MEASUREMENT NOTES: COX inhibitor screening assay in vitro, COX-2
Format: biochemical
REPORTED CONDITIONS: at 200 μM; 0.1 μM arachidonic acid; read-out: COX-2 (%) inhibition
PROPERTY NAME: inhibition at 200 µM (%)
The figure you give is taken to be in %; do not add the unit.

MOLECULE: O=c1/c(=C/c2cccc(F)c2)sc2nc(C34CC5CC(CC(C5)C3)C4)nn12 [Compound 15]
inhibition at 200 µM (%): 23

MOLECULE: O=c1/c(=C/c2ccc(Br)cc2)sc2nc(C34CC5CC(CC(C5)C3)C4)nn12 [Compound 19]
inhibition at 200 µM (%): 36

MOLECULE: O=c1/c(=C/c2ccc(F)cc2)sc2nc(C34CC5CC(CC(C5)C3)C4)nn12 [Compound 16]
inhibition at 200 µM (%): 0

Give a short answer stating reported inhibition at 200 µM for COc1cc(/C=c2\sc3nc(C45CC6CC(CC(C6)C4)C5)nn3c2=O)cc(OC)c1O [Compound 7] .
25

Please report inhibition at 200 µM for the following molecule: O=c1/c(=C/c2cccc(O)c2)sc2nc(C34CC5CC(CC(C5)C3)C4)nn12 [Compound 2]
64

Give the reported inhibition at 200 µM for this molecule. O=c1/c(=C/c2cccc(Cl)c2Cl)sc2nc(C34CC5CC(CC(C5)C3)C4)nn12 [Compound 23]
20

Could you please provide reported inhibition at 200 µM for O=c1/c(=C/c2ccc(O)cc2)sc2nc(C34CC5CC(CC(C5)C3)C4)nn12 [Compound 3] ? Thanks!
25

Quick one: give measured inhibition at 200 µM for COc1ccc(/C=c2\sc3nc(C45CC6CC(CC(C6)C4)C5)nn3c2=O)cc1 [Compound 8]
0
